Listed next: entries and their corresponding inhibition (INH).
PROCEDURE_TEXT: Inhibition of beta-hematin formation after 3 to 5 mins by EBHIA assay
Format: physicochemical
ENDPOINT_NAME: inhibition (INH) (%)

[
  {
    "COMPOUND": "CCN(CC)CCCC(C)Nc1ccnc2cc(Cl)ccc12 (stereo not given)",
    "ENDPOINT_NAME": "inhibition (INH)",
    "READOUT_UNITS": "%",
    "MEASURED": 4
  },
  {
    "COMPOUND": "[C-]#[N+][C@@]1(C)CC[C@H]2[C@H]3[C@H]4C(=CC(C)(C)C[C@@H]4C[C@@H]2C)CC[C@@H]31",
    "ENDPOINT_NAME": "inhibition (INH)",
    "READOUT_UNITS": "%",
    "MEASURED": 26
  },
  {
    "COMPOUND": "[C-]#[N+][C@@]1(C)CC[C@H]2[C@H]3[C@@H](C(=C)CC[C@@H]31)[C@@H](C=C(C)C)C[C@@H]2C",
    "ENDPOINT_NAME": "inhibition (INH)",
    "READOUT_UNITS": "%",
    "MEASURED": 14
  },
  {
    "COMPOUND": "[C-]#[N+][C@]1(C)CC[C@H](/C(C)=C\\C=C\\C(C)C)CC1",
    "ENDPOINT_NAME": "inhibition (INH)",
    "READOUT_UNITS": "%",
    "MEASURED": 62
  },
  {
    "COMPOUND": "CC1=CC2C(CC1)[C@](C)(N=C=S)CC[C@@H]2C(C)C (stereo not given in full)",
    "ENDPOINT_NAME": "inhibition (INH)",
    "READOUT_UNITS": "%",
    "MEASURED": 71
  }
]
